All values here come from patent US20090062294A1.

Target: rat FAAH (Rattus norvegicus, UniProt P97612)
Sequence (P97612 whole entry): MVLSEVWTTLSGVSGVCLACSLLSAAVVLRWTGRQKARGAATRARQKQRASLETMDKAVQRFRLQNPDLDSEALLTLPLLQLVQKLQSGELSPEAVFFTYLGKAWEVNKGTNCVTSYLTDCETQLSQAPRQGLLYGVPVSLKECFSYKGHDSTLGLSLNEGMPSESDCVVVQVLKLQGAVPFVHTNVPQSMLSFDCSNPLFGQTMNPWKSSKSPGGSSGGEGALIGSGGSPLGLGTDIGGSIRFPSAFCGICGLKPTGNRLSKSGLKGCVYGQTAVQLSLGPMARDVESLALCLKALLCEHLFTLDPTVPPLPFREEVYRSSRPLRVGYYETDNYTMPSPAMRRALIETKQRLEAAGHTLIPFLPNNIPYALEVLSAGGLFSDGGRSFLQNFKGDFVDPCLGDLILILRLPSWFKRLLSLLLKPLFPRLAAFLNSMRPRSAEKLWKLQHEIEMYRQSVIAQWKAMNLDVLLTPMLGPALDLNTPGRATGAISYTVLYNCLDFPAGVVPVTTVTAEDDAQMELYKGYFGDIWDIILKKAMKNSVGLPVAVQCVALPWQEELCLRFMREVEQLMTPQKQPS
Experiment: Assay Method 2: FAAH assay, 3H-anandamide hydrolysis in homogenate of SK-N-MC cells transfected with rat FAAH
Conditions: average of results, > = solubility limit or highest concentration tested
Procedure: A. Transfection of Cells with Rat FAAH A 10-cm tissue culture dish with a confluent monolayer of SK—N-MC cells was split 2 days (d) prior to transfection. Using sterile technique, the media was removed and the cells were detached from the dish by the addition of trypsin. One fifth of the cells were then placed onto a new 10-cm dish. […] After 10 d, dishes were analyzed for surviving colonies of cells. […]
Structures can show the parent of a compound that is named as a salt.
Consider the following molecules; for each one, report its pIC50.
// pIC50 here means minus log10 of the molar concentration (mol/L)

### Prompt Provide measured pIC50 on rat FAAH (Rattus norvegicus, UniProt P97612) for O=C(Nc1cccc2nsnc12)N1CCN(Cc2cccc(Oc3cc(Cl)cc(Cl)c3)c2)CC1 [Example 39, trifluoroacetic acid salt] please.
### Response 6.24

### Prompt Provide measured pIC50 on rat FAAH (Rattus norvegicus, UniProt P97612) for O=C(Nc1nn[nH]n1)N1CCN(Cc2ccc(Br)cc2)CC1 [Example 177] please.
### Response 5.77

### Prompt Provide measured pIC50 on rat FAAH (Rattus norvegicus, UniProt P97612) for O=C(Nc1cnccn1)N1CCN(Cc2ccc3ccccc3c2)CC1 [Example 213] please.
### Response 6.49

### Prompt Provide measured pIC50 on rat FAAH (Rattus norvegicus, UniProt P97612) for O=C(Nc1cccnn1)N1CCN(Cc2ccc3c(c2)OC(F)(F)O3)CC1 [Example 196] please.
### Response 5.80

### Prompt Provide measured pIC50 on rat FAAH (Rattus norvegicus, UniProt P97612) for O=C(Nc1cc[nH]n1)N1CCN(Cc2cccc(Oc3cccc(C(F)(F)F)c3)c2)CC1 [Example 55, trifluoroacetic acid salt] please.
### Response 6.12

====

biological target: rat FAAH (Rattus norvegicus, UniProt P97612); test: Assay Method 2: FAAH assay, 3H-anandamide hydrolysis in homogenate of SK-N-MC cells transfected with rat FAAH; type: biochemical; details: average of results, > = solubility limit or highest concentration tested
pIC50: −log10 of the molar value.
Record yes (1) whenever pIC50 is at 6 or higher; record no (0) when lower.

### Prompt Check this compound for pIC50 at or above 6: `O=C(Nc1nn[nH]n1)N1CCN(Cc2ccc3cc[nH]c3c2)CC1`
### Response no (0)

### Prompt Check this compound for pIC50 at or above 6: `O=C(Nc1noc2ccccc12)N1CCN(Cc2ccc(Cl)c(OC(F)(F)F)c2)CC1`
### Response yes (1)

### Prompt Check this compound for pIC50 at or above 6: `O=C(Nc1noc2ccccc12)N1CCN(Cc2cnc3ccccc3c2)CC1`
### Response yes (1)

### Prompt Check this compound for pIC50 at or above 6: `N#Cc1ccc(Oc2cccc(CN3CCN(C(=O)Nc4noc5ccccc45)CC3)c2)cc1C(F)(F)F`
### Response yes (1)

### Prompt Check this compound for pIC50 at or above 6: `N#Cc1ccc(Oc2cccc(CN3CCN(C(=O)Nc4nn[nH]n4)CC3)c2)cc1C(F)(F)F`
### Response no (0)

### Prompt Check this compound for pIC50 at or above 6: `O=C(Nc1noc2ccccc12)N1CCN(Cc2ccc3nc[nH]c3c2)CC1`
### Response no (0)

### Prompt Check this compound for pIC50 at or above 6: `N#Cc1ccc(Oc2cccc(CN3CCN(C(=O)Nc4ccon4)CC3)c2)cc1`
### Response no (0)

====

Consider the following compounds; for each one, report its IC50.
target: FAAH (Homo sapiens); test: Assay Method 1: FAAH assay, 3H-anandamide hydrolysis in homogenate of T84 cells or SK-N-MC cells transfected with human FAAH; conditions: average of results, > = solubility limit or highest concentration tested
Where a name gives a salt, the structure may show the parent alone.
Only the number, expressed in µM, is required.

### Prompt Provide measured IC50 value, entry: `O=C(Nc1ccsc1)N1CCN(Cc2ccc3c(c2)OC(F)(F)O3)CC1`
### Response 0.77

### Prompt Provide measured IC50 value, entry: `O=C(Nc1ccon1)N1CCC(Cc2ccc3ccccc3c2)CC1`
### Response 1

### Prompt Provide measured IC50 value, entry: O=C(Nc1nnn[nH]1)N1CCN(Cc2ccc3c(c2)OC(F)(F)O3)CC1 [Example 3, trifluoroacetic acid salt]
### Response 1.2

### Prompt Provide measured IC50 value, entry: `N#Cc1cccc(Oc2cccc(CN3CCN(C(=O)Nc4ccon4)CC3)c2)c1`
### Response 0.86

====

Consider the following molecules; for each one, report its IC50.
Biological target: FAAH (Homo sapiens, UniProt O00519)
Sequence (O00519 1-579): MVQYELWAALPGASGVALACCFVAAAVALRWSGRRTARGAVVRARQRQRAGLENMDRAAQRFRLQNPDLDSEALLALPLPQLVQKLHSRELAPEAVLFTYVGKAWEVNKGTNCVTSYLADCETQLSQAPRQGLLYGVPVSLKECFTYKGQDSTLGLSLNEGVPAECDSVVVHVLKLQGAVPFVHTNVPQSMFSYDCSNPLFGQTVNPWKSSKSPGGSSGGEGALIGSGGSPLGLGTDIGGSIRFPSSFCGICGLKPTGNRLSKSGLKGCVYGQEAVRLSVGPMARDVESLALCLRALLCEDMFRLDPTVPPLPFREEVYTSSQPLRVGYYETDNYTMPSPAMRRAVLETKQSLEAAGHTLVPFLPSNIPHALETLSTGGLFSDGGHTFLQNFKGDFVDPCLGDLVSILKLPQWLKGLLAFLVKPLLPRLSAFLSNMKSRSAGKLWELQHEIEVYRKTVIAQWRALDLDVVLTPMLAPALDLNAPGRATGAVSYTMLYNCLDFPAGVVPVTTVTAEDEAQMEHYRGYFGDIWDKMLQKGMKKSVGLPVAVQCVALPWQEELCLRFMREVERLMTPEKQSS
Assay: Assay Method 1: FAAH assay, 3H-anandamide hydrolysis in homogenate of T84 cells or SK-N-MC cells transfected with human FAAH
Conditions: average of results, > = solubility limit or highest concentration tested
Where a name gives a salt, the structure may show the parent alone.

### Prompt Provide measured IC50 value, entry: `O=C(Nc1noc2ccccc12)N1CCN(Cc2cccc(Oc3ccc(OCC(F)(F)F)cc3)c2)CC1`
### Response 0.005 µM

### Prompt Provide measured IC50 value, entry: `O=C(Nc1noc2ccccc12)N1CCN(Cc2ccc3c(c2)OCO3)CC1`
### Response 0.4 µM

### Prompt Provide measured IC50 value, entry: `O=C(Nc1cnccn1)N1CCN(Cc2cccc(Oc3ccc(OCC(F)(F)F)cc3)c2)CC1`
### Response 0.015 µM

### Prompt Provide measured IC50 value, entry: `O=C(Nc1noc2ccccc12)N1CCN(Cc2cccc(C#Cc3ccccc3)c2)CC1`
### Response 0.024 µM

### Prompt Provide measured IC50 value, entry: `O=C(Nc1noc2ccccc12)N1CCN(Cc2cccc(C#CC3CC3)c2)CC1`
### Response 0.01 µM

### Prompt Provide measured IC50 value, entry: `O=C(Nc1cnccn1)N1CCN(Cc2cccc(Oc3ccc(SC(F)(F)F)cc3)c2)CC1`
### Response 0.006 µM

### Prompt Provide measured IC50 value, entry: `O=C(Nc1ccon1)N1CCN(Cc2cccc(Oc3ccc(SC(F)(F)F)cc3)c2)CC1`
### Response 0.02 µM

### Prompt Provide measured IC50 value, entry: `O=C(Nc1noc2ccccc12)N1CCN(Cc2ccc3nc[nH]c3c2)CC1`
### Response > 10 µM

### Prompt Provide measured IC50 value, entry: O=C(Nc1cccc2ncccc12)N1CCC(Cc2ccc3ccccc3c2)CC1 [Example 20, trifluoroacetic acid salt]
### Response 0.935 µM

====

Consider the following molecules; for each one, report its log10 IC50.
Biological target: FAAH (Homo sapiens, UniProt O00519)
Sequence (O00519 1-579): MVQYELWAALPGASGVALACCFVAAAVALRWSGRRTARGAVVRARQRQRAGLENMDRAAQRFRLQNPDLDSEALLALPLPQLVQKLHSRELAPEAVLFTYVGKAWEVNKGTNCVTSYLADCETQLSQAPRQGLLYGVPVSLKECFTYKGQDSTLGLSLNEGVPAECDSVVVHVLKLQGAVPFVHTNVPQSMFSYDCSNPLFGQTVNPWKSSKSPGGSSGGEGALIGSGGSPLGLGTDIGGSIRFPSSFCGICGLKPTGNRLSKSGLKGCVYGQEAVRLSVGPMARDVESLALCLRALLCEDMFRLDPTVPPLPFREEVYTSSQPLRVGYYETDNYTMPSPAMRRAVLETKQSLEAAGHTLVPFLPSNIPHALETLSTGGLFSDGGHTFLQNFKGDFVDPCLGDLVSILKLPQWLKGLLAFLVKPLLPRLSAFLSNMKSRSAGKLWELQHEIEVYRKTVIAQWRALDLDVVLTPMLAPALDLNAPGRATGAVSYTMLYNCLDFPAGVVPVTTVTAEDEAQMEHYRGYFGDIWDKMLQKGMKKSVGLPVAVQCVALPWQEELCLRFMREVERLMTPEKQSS
Assay: Assay Method 1: FAAH assay, 3H-anandamide hydrolysis in homogenate of T84 cells or SK-N-MC cells transfected with human FAAH
Conditions: average of results, > = solubility limit or highest concentration tested
Structures can show the parent of a compound that is named as a salt.
// stored as log10 of IC50 expressed in nM

### Prompt Provide measured log10 IC50 value, entry: `O=C(Nc1cnccn1)N1CCN(Cc2ccc3c(c2)OCO3)CC1`
### Response 3.48

### Prompt Provide measured log10 IC50 value, entry: `O=C(Nc1nn[nH]n1)N1CCN(Cc2cccc(OCc3ccccc3)c2)CC1`
### Response 3.20

### Prompt Provide measured log10 IC50 value, entry: `O=C(Nc1noc2ccccc12)N1CCN(Cc2ccc(Cl)c(Cl)c2)CC1`
### Response 1.54

### Prompt Provide measured log10 IC50 value, entry: `O=C(Nc1cccnn1)N1CCN(Cc2ccc(Br)c(Br)c2)CC1`
### Response 2.04

### Prompt Provide measured log10 IC50 value, entry: `O=C(Nc1nn[nH]n1)N1CCN(Cc2cccc(Oc3ccc4ccccc4c3)c2)CC1`
### Response 1.11

### Prompt Provide measured log10 IC50 value, entry: `O=C(Nc1nnn[nH]1)N1CCN(Cc2cnc3ccccc3c2)CC1`
### Response 3.90

### Prompt Provide measured log10 IC50 value, entry: O=C(Nc1cc[nH]n1)N1CCN(Cc2cccc(Oc3cccc(C(F)(F)F)c3)c2)CC1 [Example 55, trifluoroacetic acid salt]
### Response 3.89

### Prompt Provide measured log10 IC50 value, entry: Cc1cc(NC(=O)N2CCN(Cc3cccc(Oc4ccc(Cl)cc4)c3)CC2)nn1C [Example 191, trifluoroacetic acid salt]
### Response 3.48

### Prompt Provide measured log10 IC50 value, entry: `O=C(Nc1noc2ccccc12)N1CCN(Cc2cccc(Oc3ccccc3Cl)c2)CC1`
### Response 2.17

### Prompt Provide measured log10 IC50 value, entry: `O=C(Nc1noc2ccccc12)N1CCN(Cc2ccc3ccccc3c2)CC1`
### Response 1.30

### Prompt Provide measured log10 IC50 value, entry: `O=C(Nc1cnccn1)N1CCN(Cc2cccc(Oc3cccc(Cl)c3)c2)CC1`
### Response 1.63

### Prompt Provide measured log10 IC50 value, entry: `O=C(Nc1noc2ccccc12)N1CCN(Cc2cccc(C#Cc3ccccc3OC(F)(F)F)c2)CC1`
### Response 2.43

### Prompt Provide measured log10 IC50 value, entry: `O=C(Nc1nn[nH]n1)N1CCN(Cc2ccc(Br)c(F)c2)CC1`
### Response 3.08

### Prompt Provide measured log10 IC50 value, entry: `O=C(Nc1cnccn1)N1CCN(Cc2cccc(Oc3ccc(C(F)(F)F)cc3)c2)CC1`
### Response 0.00

### Prompt Provide measured log10 IC50 value, entry: `O=C(Nc1cnccn1)N1CCN(Cc2cc3ccccc3s2)CC1`
### Response 2.23

### Prompt Provide measured log10 IC50 value, entry: O=C(Nc1ccc(Cl)nn1)N1CCN(Cc2ccc(F)c(Oc3ccccc3)c2)CC1 [Example 45, trifluoroacetic acid salt]
### Response 3.18

### Prompt Provide measured log10 IC50 value, entry: `O=C(Nc1cccnn1)N1CCN(Cc2ccc3ccccc3n2)CC1`
### Response 2.59

### Prompt Provide measured log10 IC50 value, entry: `O=C(Nc1noc2ccccc12)N1CCN(Cc2cccc(Oc3cnccn3)c2)CC1`
### Response 2.43

### Prompt Provide measured log10 IC50 value, entry: `O=C(Nc1ccon1)N1CCN(Cc2cccc(Oc3cccc(OC(F)(F)F)c3)c2)CC1`
### Response 1.70

### Prompt Provide measured log10 IC50 value, entry: `O=C(Nc1noc2ccccc12)N1CCN(Cc2cccc(C#Cc3ccc(Cl)cc3)c2)CC1`
### Response 2.61

### Prompt Provide measured log10 IC50 value, entry: `O=C(Nc1nnn[nH]1)N1CCN(Cc2cccc(Oc3ccc(Cl)c(Cl)c3)c2)CC1`
### Response 2.00

### Prompt Provide measured log10 IC50 value, entry: `CN(C)CC#Cc1cccc(CN2CCN(C(=O)Nc3noc4ccccc34)CC2)c1`
### Response 1.64

### Prompt Provide measured log10 IC50 value, entry: `O=C(Nc1nn[nH]n1)N1CCN(Cc2ccc(Br)c(Br)c2)CC1`
### Response 2.53

### Prompt Provide measured log10 IC50 value, entry: `O=C(Nc1noc2ccccc12)N1CCN(Cc2cccc(C#Cc3ccccc3Br)c2)CC1`
### Response 0.78

### Prompt Provide measured log10 IC50 value, entry: `O=C(Nc1noc2ccccc12)N1CCN(Cc2ccc(Br)c(F)c2)CC1`
### Response 1.60

### Prompt Provide measured log10 IC50 value, entry: O=C(Nc1cccc2nsnc12)N1CCN(Cc2cccc(Oc3ccc(Cl)c(Cl)c3)c2)CC1 [Example 38, trifluoroacetic acid salt]
### Response 1.85
